Origin of values: ChEMBL document CHEMBL1125085

Measurement protocol: Dose Injected intraperitoneally that causes death 50% of the mice within 24 hr was reported as lethal dose 50 (LD50).
Type: organism-based
Condition details: mouse, in vivo, ip
Experimental endpoint: LD50 at 24 h

Ask | Need LD50 at 24 h, item "O=C(Cc1nc2ccccc2c(=O)n1-c1ccccc1Cl)c1ccncc1"
Reply | > 3000 mg/kg

---

Measurement protocol: Median toxic dose was measured at time of peak neurologic deficit in phase II test
Format: organism-based
Condition details: mouse, in vivo
Experimental endpoint: TD50 (mg/kg)
Express the result in mg/kg but write the number alone.

Ask | Need TD50, item "Cc1ccccc1-n1c(CC(=O)c2ccncc2)nc2ccccc2c1=O"
Reply | 561

---

Measurement protocol: Median toxic dose was measured at time of peak neurologic deficit
Type: organism-based
Condition details: mouse, in vivo
Experimental endpoint: TD50

Ask | Need TD50, item "O=C(Cc1nc2ccccc2c(=O)n1-c1ccccc1Br)c1ccncc1"
Reply | > 2000 mg/kg

---

Measurement protocol: Median toxic dose was measured at time of peak neurologic deficit
Format: ADME
Experimental endpoint: TD50 (mg/kg)
Express the result in mg/kg but write the number alone.

Ask | Need TD50, item "Cc1ccccc1-n1c(C)nc2ccccc2c1=O"
Reply | 55

---

Kindly state TD50 for each of the entries shown.
Measurement protocol: Neurotoxicity was determined by injecting perorally in rats
Assay type: toxicity, organism-based
Condition details: rat, in vivo, po
Express the result in mg/kg but write the number alone.

Ask | Need TD50, item "O=C(Cc1nc2ccccc2c(=O)n1-c1ccccc1Cl)c1ccncc1"
Reply | 2.91

Ask | Need TD50, item "Cc1ccccc1-n1c(CC(=O)c2ccncc2)nc2ccccc2c1=O"
Reply | 2.89

---

Measurement protocol: Neurotoxicity was determined by injecting perorally in mice. Median toxic dose was measured
Assay type: toxicity, organism-based
Condition details: mouse, in vivo, po
Experimental endpoint: TD50 (mg/kg)
Express the result in mg/kg but write the number alone.

Ask | Need TD50, item "Cc1ccccc1-n1c(CC(=O)c2ccncc2)nc2ccccc2c1=O"
Reply | 67.6
